List of GI50 values.
System: A549
protocol description: NCI tumour cell line growth inhibition, 48 h
The source made the active and inactive calls. No stated cut-off is given here; in the data, active = GI50 up to about 1.1 µM and inactive = higher.

- compound: "CC1=C(c2cc(C(=O)Nc3cccc(C(F)(F)F)c3)ncn2)Sc2ccccc2N1"
  GI50: "> 100 µM (inactive)"
- compound: "CCOC(=O)NC(=S)c1ccc(O)c2ccccc12"
  GI50: "44.9 µM (inactive)"
- compound: "CCCCC(C(=O)C(=O)NC1C2CC3CC(C2)CC1C3)C(=O)C(C)C (configuration not stated)"
  GI50: "> 100 µM (inactive)"
- compound: "COC(=O)C(Cc1nc2ccccc2nc1O)C(=O)C(=O)Nc1ccc([N+](=O)[O-])cc1[N+](=O)[O-] (configuration not stated)"
  GI50: "34.1 µM (inactive)"
- compound: "COc1cccc(NC(=O)N/C(=C/c2ccc(N(CCC#N)CCC#N)cc2)NC(=O)c2cc([N+](=O)[O-])ccc2Cl)c1"
  GI50: "> 100 µM (inactive)"
- compound: "Cc1ccc(NC(=O)C(=O)C(C(=O)c2ccc3ccccc3c2)C2OC(=O)c3ccccc32)cc1C (configuration not stated)"
  GI50: "16.5 µM (inactive)"
- compound: "COC(=O)c1cc(C)n(CN(Cc2ccccc2)Cn2nc(C(=O)OC)cc2C)n1"
  GI50: "> 100 µM (inactive)"
- compound: "CCOC(=O)/C(=N/Nc1ccc(C)cc1)N1C(=S)N(C)N=C(C)C=C1S"
  GI50: "> 100 µM (inactive)"
- compound: "O=C(NN1C(=O)CSC1c1ccco1)c1ccncc1 (configuration not stated)"
  GI50: "> 100 µM (inactive)"
- compound: "Cc1cn(C2CC(n3cc(Cn4cc(Br)c(=O)[nH]c4=O)nn3)C(CO)O2)c(=O)[nH]c1=O (configuration not stated)"
  GI50: "> 100 µM (inactive)"
- compound: "NC(=S)NN=C1Cc2ccccc2C1"
  GI50: "> 100 µM (inactive)"
- compound: "O=C(CO)CC(=O)C(=O)Nc1nc([N+](=O)[O-])cs1"
  GI50: "> 100 µM (inactive)"
- compound: "CC/C(C)=C1\\OC(=O)C(C)C(O)C(Cc2cccnc2)NC(=O)C(NC(=O)c2ncccc2O)C(C)OC1=O (configuration not stated)"
  GI50: "74.3 µM (inactive)"
- compound: "CCn1c(-c2ccc(/N=N/Nc3ccc(-c4n[nH]c(=S)n4CC)cc3)cc2)n[nH]c1=S"
  GI50: "3.56 µM (inactive)"
- compound: "COCCOC(=O)C1=C(O)c2ccccc2S(=O)(=O)N1C"
  GI50: "> 100 µM (inactive)"
- compound: "O=C(NCCNCCO)N/N=C/c1ccc([N+](=O)[O-])cc1"
  GI50: "> 100 µM (inactive)"
- compound: "CC(=O)OC(=C(C#N)C#N)c1nccnc1C(C)=O"
  GI50: "11.9 µM (inactive)"
- compound: "O=c1[nH]c2cc(Cl)ccc2nc1/C(=N/Nc1ccccc1)C(O)c1ccco1 (configuration not stated)"
  GI50: "> 100 µM (inactive)"
- compound: "COCOCC/C=C/C=O"
  GI50: "> 100 µM (inactive)"
- compound: "CC(=O)NC1(c2cc3ccccc3s2)CCCCCC1"
  GI50: "38.9 µM (inactive)"
- compound: "O=C1c2ccccc2OCC1/C=N/O (configuration not stated)"
  GI50: "> 100 µM (inactive)"
- compound: "COc1cc(Br)cc2c1O[C@H]1C(=O)CC3CC21CCN3C (some centres not stated)"
  GI50: "94.4 µM (inactive)"
